System: SF-539 CNS
ASSAY PROTOCOL: NCI tumour cell line growth inhibition, 48 h
Reported TGI is given for each of the following molecules.

Solved cases (2 shown):
>>> result("COc1ccc(C(Cc2ccccc2)C2NC(=S)NC2=O)cc1 (configuration not stated)")
"> 25 µM"
>>> result("COC(=O)c1c(CC(Cc2ccc3c(c2)CCCC3)C(=O)OC)ccc2c1CCCC2 (configuration not stated)")
"> 100 µM"

// recorded TGI for CNc1ccc2ncccc2c1[N+](=O)[O-] : > 100 µM

###

System: NCI-H522 lung
ASSAY PROTOCOL: NCI tumour cell line growth inhibition, 48 h
ASSAY ENDPOINT: TGI

Solved cases (2 shown):
>>> result("CN1CCN(Cc2ccc(NC(=O)c3cncc(C#Cc4cnc(N)cc4C#N)c3)cc2C(F)(F)F)CC1")
"17.7 µM"
>>> result("NC(Cc1c[nH]c2cc([N+](=O)[O-])ccc12)C(=O)O (stereo not given)")
"> 100 µM"

// recorded TGI for NNc1cnn(-c2ccccc2)c(=O)c1Cl : > 100 µM

// recorded TGI for CCCc1c(C(=O)OCC)[nH]c(-c2ccc(-c3[nH]c(C(=O)OCC)c(CCC)c3C(=O)OCC)s2)c1C(=O)OCC : > 100 µM

// recorded TGI for COc1ccc(OC(C(=O)O)C(C)C)c2c1CCCC2=O (stereo not given) : > 100 µM

// recorded TGI for Cc1ccc(S(=O)(=O)[C@@H](Cl)[C@H]2N=C(Cl)NN=C2c2ccccc2)cc1 : 35.9 µM

// recorded TGI for O=C(O)/C=C\C(=O)Nc1ccccn1 : > 100 µM

// recorded TGI for N/C(=N\NS(=O)(=O)c1ccccc1)Oc1ccc(Br)cc1Br : > 100 µM

// recorded TGI for CCOC(=O)c1c(C)nc2c(c1-c1cn(-c3ccccc3)nc1-c1ccccc1)C(=O)c1ccccc1-2 : > 100 µM

// recorded TGI for Cc1ncc(C(=O)Nc2ccc(CN3CCN(C)CC3)c(C(F)(F)F)c2)cc1C#Cc1ccc(N)nc1 : 1.75 µM

###

Tested on: PC-3 prostate
ASSAY PROTOCOL: NCI tumour cell line growth inhibition, 48 h
Reported TGI is given for each of the following compounds.

>>> result("CCOc1ccc2c(c1)C(=O)c1c-2n(CCCBr)c(=O)c2cc([N+](=O)[O-])ccc12")
"> 100 µM"

// recorded TGI for NC(=O)c1cc(N(CCO)CCO)c([N+](=O)[O-])cc1[N+](=O)[O-] : > 100 µM

// recorded TGI for COc1ccc(C(Cc2ccccc2)C2NC(=S)NC2=O)cc1 (stereo not given) : > 25 µM

// recorded TGI for CC(C)(C)CC(C)(C)NC(=S)NO : > 100 µM

// recorded TGI for COC(=O)C12CC(NC(=O)c3csc([C@@H](C[C@H](C(C)C)N(C)C(=O)[C@@H](NC(=O)[C@H]4CCCCN4C)C4CC4)OC(C)=O)n3)(C1)C2 : > 16.7 µM

###

System: UO-31 renal
ASSAY PROTOCOL: NCI tumour cell line growth inhibition, 48 h
ASSAY ENDPOINT: TGI

Solved cases (6 shown):
>>> result("Nc1cccc(S(=O)(=O)Nc2nnc(S(N)(=O)=O)s2)c1")
"> 100 µM"
>>> result("COC(=O)C(CCC(=O)CCl)N1C(=O)c2ccccc2C1=O (stereo unspecified)")
"24.2 µM"
>>> result("C#CCNC(=O)NCCCCC(NC(=O)OCc1ccccc1)C(=O)OCc1ccccc1 (stereo unspecified)")
"> 72.3 µM"
>>> result("O=C1Nc2cc([N+](=O)[O-])c(Br)cc2C1=O")
"36.2 µM"
>>> result("Cc1ccc2nc(-c3ccc(OCC(=O)N=Nc4c(O)[nH]c5ccccc45)cc3)[nH]c2c1")
"> 100 µM"
>>> result("Cc1ccnc2nc(N)ccc12")
"> 100 µM"

Turning now to a further compound:
# value of TGI, UO-31 renal, item CC(=O)NC(CCCCN)C(=O)NCc1ccccc1 (stereo unspecified) = > 100 µM
